Answer each item with its documented growth inhibition.
Test: NCI Yeast Anticancer Drug Screen. Data for the bub3 strain (AID 167)
Conditions: S. cerevisiae bub3 mutant strain, at 50.0 µM, hits give high values
About 79,000 compounds went through this panel and 15% of them were active in at least one assay; those are over-represented in the sample as a whole.
Give bare numbers, in %.

>>> observed_value("CC(=O)c1c(O)c(C)c(O)c(Cc2c(O)c3c(c(C(=O)/C=C/c4ccccc4)c2O)OC(C)(C)C=C3)c1O")
39.8
>>> observed_value("BrCC[N+]12CC[N+](CCBr)(CC1)C2 (tested in a mixture with another compound)")
78.1
>>> observed_value("O=C(Nc1ccc(N(CCCl)CCCl)cc1)c1ccc([N+](=O)[O-])cc1")
-1.05
>>> observed_value("CCCCCCCC(N)CC(=O)O (stereo unspecified)")
-36.6
>>> observed_value("c1cc[c]([Ge]([c]2ccccc2)[c]2ccccc2)cc1")
-5.15
>>> observed_value("CCCC[N+]1(C)CCC(OC(=O)C(O)(c2ccccc2)C2CCCC2)C1 (stereo unspecified)")
-6.3
>>> observed_value("CCC1CN1CCC(=O)Nc1ccccc1 (stereo unspecified)")
-17.6
>>> observed_value("C/C=C1\\C[C@@H]2C(OC)Nc3cc(O)c(OC)cc3C(=O)N2C1 (stereo partly specified)")
81.3

I would be grateful if you could provide growth inhibition for each of the following entries.
1. COC1=CC=C2[C@@H]3Cc4ccc(OC)c5c4[C@]2(CCN3CCCl)C1O5 (stereo partly specified)
2. O=C(NCC(O)CO)c1c([N+](=O)[O-])ccc(N(CCCl)CCCl)c1[N+](=O)[O-] (stereo unspecified)
3. N#C[S-].N#C[S-].[Ni+2].c1ccc([PH+](c2ccccc2)c2ccccc2)cc1.c1ccc([PH+](c2ccccc2)c2ccccc2)cc1

(A)
1. 6.85
2. -19.1
3. 34.2

I would be grateful if you could provide growth inhibition for each of the following entries.
1. N.N.N.N.O=C([O-])C(Cl)Cl.O=C([O-])C(Cl)Cl.[Co+3].[O-][Cl+3]([O-])([O-])[O-]
2. CC1C(C)(C)P(=O)(Oc2ccc3ccccc3c2)C1(C)C (stereo unspecified)
3. CC(C)C1(Cc2ccccc2)C(=O)NC(=S)NC1=O
4. O=C1NC(=S)NC(=O)C1=Cc1ccc2ccccc2n1

(A)
1. -6.1
2. 94.4
3. -14.2
4. -6.35

I would be grateful if you could provide growth inhibition for each of the following entries.
1. CCP(=S)(CC)P(=S)(CC)CC
2. CNC(=O)Oc1cccc2c(OC3OC(CO)C(O)C(O)C3O)cccc12 (stereo unspecified)
3. O=C(Nc1c(Cl)cc([N+](=O)[O-])cc1Cl)C(=O)C1C(=O)NC(=S)NC1=O
4. CC([OH2+])CNCCN.CC([OH2+])CNCCN.O=[N+]([O-])[O-].[Cu+2] (stereo unspecified)

(A)
1. -11.8
2. 2.05
3. 10.6
4. -0.7

I would be grateful if you could provide growth inhibition for each of the following entries.
1. C[N+]12C(=O)CC3OCC=C4C[N+]5(C)CCC6(c7ccccc71)C2C3C4CC65O (stereo unspecified)
2. CC(CO)([N+](=O)[O-])[N+](=O)[O-]
3. CN(C)P(=S)(CCPc1ccccc1)N(C)C (stereo unspecified)
4. COC(=O)C1(F)C(=O)NC(=O)NC1O (stereo unspecified)
5. CCC(CN)c1ccccc1 (stereo unspecified)
6. O=[N+]([O-])c1cc(S(=O)(=O)O)cc([N+](=O)[O-])c1Cl
7. CCC(=O)OC1(c2ccccc2)CCN(C/C=C/c2cccc3ccccc23)CC1

(A)
-17.6
4.8
-5.75
0.85
-14.4
-17
83

I would be grateful if you could provide growth inhibition for each of the following entries.
1. CCC(C)(C)C(=O)Nc1cccc(OC(=O)NC)c1
2. COc1cc2cc(c1Cl)N(C)C(=O)CC(OC(=O)C(C)C)C1(C)OC1C(C)C1CC(O)(NC(=O)O1)C(OC)/C=C/C=C(C)C2 (stereo unspecified)

(A)
1. 13.2
2. -21.2

I would be grateful if you could provide growth inhibition for each of the following entries.
1. O=C(NCC(O)CO)c1cc(N(CCCl)CCCl)c([N+](=O)[O-])cc1[N+](=O)[O-] (stereo unspecified)
2. O=C=Nc1ccc(Br)cc1

(A)
-10.4
23.9

I would be grateful if you could provide growth inhibition for each of the following entries.
1. NNC(N)=NCCCC(N)C(=O)O (stereo unspecified)
2. CCOC(=O)NP(=O)(Nc1ccc(C)cc1)Nc1ccc(C)cc1
3. Cc1ccc(P(=S)(c2ccccc2)c2ccccc2)c2ccccc12
4. COP(=O)(OC)C(C)(C)NC(=O)NC(F)(F)F

(A)
1. -45.6
2. -9.55
3. 20
4. 11.1

I would be grateful if you could provide growth inhibition for each of the following entries.
1. NC(=O)C[CH2][Sn]([Cl])([Cl])[CH2]CC(N)=O
2. N.N.N.O=[N+]([O-])[O-].O=[N+]([O-])[O-].O=[N+]([O-])[O-].O=[N+]([O-])[O-].[Co+3]
3. O=S(=O)(c1ccc(O)cc1)c1ccccc1O
4. [Cl][Ni][Cl].[NH-]CCN1CC1.[NH-]CCN1CC1
5. O=[N+]([O-])c1ccc(P(=O)(O)O)cc1

(A)
7.9
11.8
0.6
-4.55
2.85
